System: BT-549
ASSAY_TEXT: Growth inhibition of human BT549 cells assessed as growth inhibition at 10 uM by sulforhodamine B assay
Format: functional
EXPERIMENTAL_CONDITIONS: read-out: GI
RESULT_TYPE: inhibition of growth at 10 µM (%)
Entry rule: numbers only, all in %.

# MOLECULE, inhibition of growth at 10 µM / %
records = [
    ("CC1(C)C[C@@H](O)[C@]2(C(=O)O)CC[C@]3(C)C(=CC[C@@H]4[C@@]5(C)C/C(=C\\C=C\\c6ccccc6)C(=O)C(C)(C)[C@@H]5CC[C@]43C)[C@@H]2C1", 30),
]

Prompt: Requested field: inhibition of growth at 10 µM. Item: CC1(C)C[C@@H](O)[C@]2(C(=O)O)CC[C@]3(C)C(=CC[C@@H]4[C@@]5(C)CCC(=O)C(C)(C)[C@@H]5CC[C@]43C)[C@@H]2C1
Completion: 10.1

Prompt: Requested field: inhibition of growth at 10 µM. Item: C/C=C(/C)C(=O)O[C@@H]1CC(C)(C)C[C@H]2C3=CC[C@@H]4[C@@]5(C)CCC(=O)C(C)(C)[C@@H]5CC[C@@]4(C)[C@]3(C)CC[C@@]12C(=O)O
Completion: 56

Prompt: Requested field: inhibition of growth at 10 µM. Item: CC(C)=CC(=O)O[C@@H]1CC(C)(C)C[C@H]2C3=CC[C@@H]4[C@@]5(C)CC[C@H](O)C(C)(C)[C@@H]5CC[C@@]4(C)[C@]3(C)CC[C@@]12C(=O)O
Completion: 21.9

Prompt: Requested field: inhibition of growth at 10 µM. Item: C/C=C(/C)C(=O)O[C@@H]1CC(C)(C)C[C@H]2C3=CC[C@@H]4[C@@]5(C)CC[C@H](O)C(C)(C)[C@@H]5CC[C@@]4(C)[C@]3(C)CC[C@@]12C(=O)O
Completion: 73.9

Prompt: Requested field: inhibition of growth at 10 µM. Item: CC(C)=CC(=O)O[C@@H]1CC(C)(C)C[C@H]2C3=CC[C@@H]4[C@@]5(C)CCC(=O)C(C)(C)[C@@H]5CC[C@@]4(C)[C@]3(C)CC[C@@]12C(=O)O
Completion: 30.4

###

Tested on: NCI-H23
ASSAY_TEXT: Growth inhibition of human NCI-H23 cells assessed as cell growth at 10^-7 M by sulforhodamine B assay
Type: functional
EXPERIMENTAL_CONDITIONS: read-out: Activity
Documented growth at 0.1 µM across a set of molecules
Entry rule: numbers only, all in %.

Example entries and their recorded answers appear below.
# MOLECULE, U, REPORTED
measured = [
    ("CC(C)=CC(=O)O[C@@H]1CC(C)(C)C[C@H]2C3=CC[C@@H]4[C@@]5(C)CC[C@H](O)C(C)(C)[C@@H]5CC[C@@]4(C)[C@]3(C)CC[C@@]12C(=O)O", "%", 92),
    ("CC(C)=CC(=O)O[C@@H]1CC(C)(C)C[C@H]2C3=CC[C@@H]4[C@@]5(C)CCC(=O)C(C)(C)[C@@H]5CC[C@@]4(C)[C@]3(C)CC[C@@]12C(=O)O", "%", 90),
    ("C/C=C(/C)C(=O)O[C@@H]1CC(C)(C)C[C@H]2C3=CC[C@@H]4[C@@]5(C)CC[C@H](O)C(C)(C)[C@@H]5CC[C@@]4(C)[C@]3(C)CC[C@@]12C(=O)O", "%", 99),
]

Prompt: Requested field: growth at 0.1 µM. Item: CC1(C)C[C@@H](O)[C@]2(C(=O)O)CC[C@]3(C)C(=CC[C@@H]4[C@@]5(C)C/C(=C\C=C\c6ccccc6)C(=O)C(C)(C)[C@@H]5CC[C@]43C)[C@@H]2C1
Completion: 95

Prompt: Requested field: growth at 0.1 µM. Item: C/C=C(/C)C(=O)O[C@@H]1CC(C)(C)C[C@H]2C3=CC[C@@H]4[C@@]5(C)CCC(=O)C(C)(C)[C@@H]5CC[C@@]4(C)[C@]3(C)CC[C@@]12C(=O)O
Completion: 99
